- Test system: HepG2
- experiment_summary: relative viability EC50 (midpoint between 100% and the lowest measured viability); higher = less toxic
- particulars: 72 h
value_type: relative viability EC50

compound COc1ccc(C[C@H]2NC[C@H](O)[C@H]2OC(C)=O)cc1 , relative viability EC50 observed: 0.0728 µM

relative viability EC50 in this record for CC(C)(C)C(=O)OCOC(=O)[C@@H]1N2C(=O)C[C@H]2S(=O)(=O)C1(C)C : > 10 µM

Reported relative viability EC50 ( COC(=O)C1=C(C#N)NC(C)=C(C(=O)OC(C)C)C1c1cccc([N+](=O)[O-])c1 (stereo not drawn) ) = > 10 µM

Form: compound = CCn1c(N)c(C(=O)NC)c(=O)c2ccc(C#C[C@@](C)(O)COC)nc21 ; relative viability EC50 = > 10 µM

relative viability EC50 recorded for this compound, CNC(=O)[C@H]1O[C@@H](n2cnc3c(NCc4cccc(I)c4)nc(Cl)nc32)[C@H](O)[C@@H]1O , is > 10 µM

Looking up CCC(=O)O[C@]1(C(=O)CCl)[C@@H](C)C[C@H]2[C@@H]3C[C@H](F)C4=CC(=O)C=C[C@]4(C)[C@@]3(F)[C@@H](O)C[C@@]21C [halobetasol-propionate] , I found its relative viability EC50 recorded as > 10 µM

Summary for this compound, C[N+]1(C)CCCC(OC(=O)C(O)(c2ccccc2)c2ccccc2)C1 (stereo not drawn) [mepenzolate] : relative viability EC50 is > 10 µM

Kindly note the recorded relative viability EC50 for CC(C)(C(=O)O)c1ccc(C(=O)CCCN2CCC(OC(c3ccccc3)c3ccccc3)CC2)cc1 , which is > 10 µM

The value of relative viability EC50 measured for the compound C[N+](C)(C)CC[N+]1(C)Cc2c(Cl)c(Cl)c(Cl)c(Cl)c2C1 [chlorisondamine-diiodide] turned out to be > 10 µM

# compound Cc1c(CN2CCN(C(=O)[C@H](C)O)CC2)sc2c(N3CCOCC3)nc(-c3cnc(N)nc3)nc12 ; its relative viability EC50 = 0.67 µM

Documented relative viability EC50 of CCCN[C@H]1CCc2nc(N)sc2C1 [pramipexole] : > 10 µM

For this compound ( N[C@@H](C(=O)O)[C@@H](OCc1ccccc1)C(=O)O.N[C@H](C(=O)O)[C@H](OCc1ccccc1)C(=O)O ), measured relative viability EC50 is > 10 µM

Field relative viability EC50 (entry C=C(NC(=O)C(=C)NC(=O)c1csc(C2=N[C@@H]3c4csc(n4)[C@H]4NC(=O)c5csc(n5)[C@H]([C@](C)(O)[C@@H](C)O)NC(=O)[C@H]5CSC(=N5)/C(=C/C)NC(=O)[C@H]([C@@H](C)O)NC(=O)c5csc(n5)[C@]3(CC2)NC(=O)[C@H](C)NC(=O)C(=C)NC(=O)[C@H](C)NC(=O)[C@H]([C@@H](C)CC)N[C@@H]2C=Cc3c([C@H](C)O)cc(nc3[C@H]2O)C(=O)O[C@@H]4C)n1)C(N)=O ) reads > 10 µM

In plain terms, O=S(=O)(/N=C/c1c(O)ccc2ccccc12)c1cccs1 has a documented relative viability EC50 of > 10 µM

For record Cn1cc(-c2ccc3nnc(C(F)(F)c4ccc5ncccc5c4)n3n2)cn1 the listed relative viability EC50 is > 10 µM

relative viability EC50 in this record for NCCCNCCSP(=O)(O)O : > 10 µM

Field relative viability EC50 (entry CN(C)C(=N)NCCC[C@H](N)C(=O)O ) reads > 10 µM

GET /value?item= O=C(O)/C=C/c1ccc(-c2ccc(O)c(C34CC5CC(CC(C5)C3)C4)c2)cc1 &field=relative viability EC50 returns 0.285 µM

relative viability EC50 reported for this compound COc1ccc(OC)c([C@@H](O)CNC(=O)CN)c1 : > 10 µM

Just so you know, measured relative viability EC50 for O=C1NC(=O)/C(=C/c2cccc(C(F)(F)F)c2)S1 came out at > 10 µM

Per the record, CC(C)[C@H](CO)Nc1nc(Nc2cc(N)cc(Cl)c2)c2ncn(C(C)C)c2n1 has relative viability EC50 of 3.54 µM

Entry CC(C)=CCC/C(C)=C/CC/C(C)=C/C=C/C(C)=C/C(=O)O ; relative viability EC50 = > 10 µM

# relative viability EC50 (compound: O=C(O)/C=C\c1c[nH]cn1 [cis-Urocanic acid] ) is > 10 µM
